Answer each item with its documented Activity.
Test system: HUVEC
Experiment: Cytotoxicity against HUVEC assessed as reduction in cell viability at 100 ug/ml after 24 hrs by MTT assay relative to control
Assay type: cell-based
Details: human
Numbers only, in %.

compound | u | Activity
CC(=O)Nc1ccc(O)cc1 | % | 25.93
O=C1NCc2c(O)cc(O)cc21 | % | 23.13
NC(=O)c1cccnc1 [NIACINAMIDE] | % | 6.07

I have 3 compounds here; please give me Activity for each one.
1. CN(C)c1ccccc1C(=O)O
2. OCc1cc(O)cc(O)c1
3. CNc1ccccc1C(=O)O

25.82
25.15
24.55
